Tested on: UO-31 renal
Assay: NCI-60 one-dose screen, 48 h (100 = growth as untreated, 0 = no growth, -100 = all killed)
Conditions: 10 µM unless noted
This is part of a sample that, as a whole, favours compounds with a hit. Of some 83,000 tested, about 20% had one in any assay.
valueKind: growth (%)

• COc1ccc(-c2cc(-c3cc(OC)ccc3O)[nH]c(=O)c2C#N)cc1 = 44.1
• CCCN1CCN(c2ccc3nc(-c4ccc5nc(-c6ccc(OCC)c(OCC)c6)[nH]c5c4)[nH]c3c2)CC1 = 47.2
• C[C@@H]1C(=O)N(C[C@H](Cc2ccccc2)N(Cc2ccccc2)Cc2ccccc2)[C@]1(Cc1ccccc1)C(=O)OC(C)(C)C = 41.2
• O=C1c2ccccc2C(=O)c2cc(Cn3cc[n+](Cc4ccc5ccccc5c4)c3)ccc21 = 82.5
• COc1ccc(/C(C)=C(\c2ccc(Cl)cc2)c2ccc(OCCN3CCCCC3)cc2)cc1F = 11.6
• O=C1/C(=C/c2ccccc2[N+](=O)[O-])COc2ccc(O)c(O)c21 = -67.8
• O=c1cc(-c2ccc(OCc3ccccc3)cc2)oc2c(I)c(OCc3ccccc3)cc(OCc3ccccc3)c12 = 80
• Cc1cc(-c2noc(C(F)(F)F)n2)ccc1N1CCN(c2cc(C(=O)N(C)C)no2)CC1 = 62.7
• COc1ccc(-c2cncnc2N)cc1OC = 101
• NC(N)=N/N=C/CO = 80.9
• O=C(O)c1ccc(CO)o1 = 97.7
• COc1c(C)cnc(CSc2nc(-c3ccc(C)cc3)cn2-c2ccc(Cl)cc2)c1C = 63.2
• COc1ccc(-n2nnc(C(=O)NCCc3c[nH]c4ccc(F)cc34)c2C)cc1 = 83.5
• CN(C)c1ccc(/C=N/NC(=O)COc2cc(=O)n(C)c3ccccc23)cc1 = 71.7
• C[C@H]1[C@H](C)CC[C@]2(C(=O)N3CCN(C)CC3)CC[C@]3(C)C(=CC[C@@H]4[C@@]5(C)C/C(=C/c6cccnc6)C(=O)C(C)(C)[C@@H]5CC[C@]43C)[C@H]12 = -92.5
• O=c1[nH]c(=O)n(C2CC(O)C(CO)O2)cc1CO (stereo unspecified) = 102

###

Tested on: OVCAR-8 ovarian
Experiment: NCI-60 one-dose screen, 48 h (100 = growth as untreated, 0 = no growth, -100 = all killed)
Settings: 10 µM unless noted
Procedure: Growth inhibition of the OVCAR-8 human tumor cell line is measured as a screen for anti-cancer activity. Cells are grown in 96 well plates and exposed to the test compound for 48 hours. Compounds are tested at a single concentration, which is 10^-5 M for most compounds. The reported endpoint is percent growth (GI% or GIPRCNT), where numbers from 0 - 100% represent growth inhibition, and numbers from -100% - 0 represent cell death. For example, a value of 40 represents 60% growth inhibition. […]
The panel holds about 83,000 compounds, 20% with a hit somewhere; the sample as a whole holds those more often.
Each item that follows carries a reported growth.
valueKind: growth (%)

• Cc1ccc(S(=O)(=O)Nc2sccc2-c2nc(-c3ccccc3)no2)cc1 = 89.4
• COc1ccc(-c2nnc(-c3ccc4c(c3)nc(-c3ccccc3)n4C3CCCCC3)o2)cc1 = 30.8
• CCCCNC(=O)c1cc(NCc2cc(O)ccc2O)ccc1O = 87.6
• Nc1ccc2c(S(=O)(=O)O)ccc(S(=O)(=O)O)c2c1 = 91.6
• CN(C)c1ccc2cc(-c3ccc(Cl)c(Cl)c3)c(N)nc2c1 = 21
• COc1ccc(/C=C(\C#N)n2nnc3cc(F)c(F)cc32)c(OC)c1OC = 67.6
• CC(=O)OCCc1ccccc1 = 98.7
